Each item that follows carries a reported mortality at 0.5 h.
test: Toxicity in 3-MP induced Swiss mouse seizure model assessed as death at 50 mg/kg,ip administration for 30 mins; format: organism-based; settings: in vivo, read-out: Activity

compound | mortality at 0.5 h, %
CN1C(=O)CC(=O)N(C)c2cc(NCc3ccc(F)cc3)ccc21 | 20
NC(=O)N1c2ccccc2C=Cc2ccccc21 [CARBAMAZEPINE] | 90

----------
experiment: Protective index, ratio of TD50 for toxicity in Sprague-Dawley rat assessed as median toxicity dose at ip administration by rotorod test to ED50 for anticonvulsant activity in Sprague-Dawley rat assessed as protection against maximal electroshock induced seizure at ip administration; assay type: organism-based; settings: in vivo, read-out: Ratio TD50/ED50

structure-string | selectivity ratio
CCCC(CCC)C(=O)NCCN(C)C | 1.8

----------
assay: Protective index, ratio of TD50 for toxicity in Wistar rat assessed as median toxicity dose at po administration for 8 hrs by rotorod test to ED50 for anticonvulsant activity in Wistar rat assessed as protection against maximal electroshock induced seizure at po administration for 8 hrs; assay type: organism-based; details: in vivo, read-out: Ratio TD50/ED50

structure-string | selectivity ratio at 8 h
NC(=O)N1c2ccccc2C/C(=N/O)c2ccccc21 | > 117
